- Test system: HeLa Kyoto
- ASSAY: solubility change mitosis vs G1/S (difference of NP-40 vs SDS log2 ratios) (log2 ratio difference); higher = more soluble in mitosis
ENDPOINT: solubility change mitosis (log2)
Answers are plain numbers.

Take a look at these entries with their results.
MVLIKEFRVVLPCSVQEYQVGQLYSVAEASKNETGGGEGIEVLKNEPYEKDGEKGQYTHKIYHLKSKVPAFVRMIAPEGSLVFHEKAWNAYPYCRTIVTNEYMKDDFFIKIETWHKPDLGTLENVHGLDPNTWKTVEIVHIDIADRSQVEPADYKADEDPALFQSVKTKRGPLGPNWKKELANSPDCPQMCAYKLVTIKFKWWGLQSKVENFIQKQEKRIFTNFHRQLFCWIDKWIDLTMEDIRRMEDETQKELETMRKRGSVRGTSAADV [PITPNB]: -0.0681
MSGAGEALAPGPVGPQRVAEAGGGQLGSTAQGKCDKDNTEKDITQATNSHFTHGEMQDQSIWGNPSDGELIRTQPQRLPQLQTSAQVPSGEEIGKIKNGHTGLSNGNGIHHGAKHGSADNRKLSAPVSQKMHRKIQSSLSVNSDISKKSKVNAVFSQKTGSSPEDCCVHCILACLFCEFLTLCNIVLGQASCGICTSEACCCCCGDEMGDDCNCPCDMDCGIMDACCESSDCLEICMECCGICFPS [MDFIC]: 0.671

Now for another entry.
Query: Give the measured solubility change mitosis (log2) of MKPGFSPRGGGFGGRGGFGDRGGRGGRGGFGGGRGRGGGFRGRGRGGGGGGGGGGGGGRGGGGFHSGGNRGRGRGGKRGNQSGKNVMVEPHRHEGVFICRGKEDALVTKNLVPGESVYGEKRVSISEGDDKIEYRAWNPFRSKLAAAILGGVDQIHIKPGAKVLYLGAASGTTVSHVSDIVGPDGLVYAVEFSHRSGRDLINLAKKRTNIIPVIEDARHPHKYRMLIAMVDVIFADVAQPDQTRIVALNAHTFLRNGGHFVISIKANCIDSTASAEAVFASEVKKMQQENMKPQEQLTLEPYERDHAVVVGVYRPPPKVKN [FBL] .
Reply: 1.49

====

- System: HeLa Kyoto
- ASSAY: melting temperature (median over replicates), in situ; higher = more thermally stable
- MEASUREMENT SETUP: cell cycle stage: mitosis
Field: melting temperature. Provide a value for each of the sequences that follow.
Answers are plain numbers, in °C.

MEKTLETVPLERKKREKEQFRKLFIGGLSFETTEESLRNYYEQWGKLTDCVVMRDPASKRSRGFGFVTFSSMAEVDAAMAARPHSIDGRVVEPKRAVAREESGKPGAHVTVKKLFVGGIKEDTEEHHLRDYFEEYGKIDTIEIITDRQSGKKRGFGFVTFDDHDPVDKIVLQKYHTINGHNAEVRKALSRQEMQEVQSSRSGRGGNFGFGDSRGGGGNFGPGPGSNFRGGSDGYGSGRGFGDGYNGYGGGPGGGNFGGSPGYGGGRGGYGGGGPGYGNQGGGYGGGYDNYGGGNYGSGNYNDFGNYNQQPSNYGPMKSGNFGGSRNMGGPYGGGNYGPGGSGGSGGYGGRSRY [HNRNPA2B1]: 49

Now for a further sequence.
Query: Could you share which melting temperature value was measured for MNIVVEFFVVTFKVLWAFVLAAARWLVRPKEKSVAGQVCLITGAGSGLGRLFALEFARRRALLVLWDINTQSNEETAGMVRHIYRDLEAADAAALQAGNGEEEILPHCNLQVFTYTCDVGKRENVYLTAERVRKEVGEVSVLVNNAGVVSGHHLLECPDELIERTMMVNCHAHFWTTKAFLPTMLEINHGHIVTVASSLGLFSTAGVEDYCASKFGVVGFHESLSHELKAAEKDGIKTTLVCPYLVDTGMFRGCRIRKEIEPFLPPLKPDYCVKQAMKAILTDQPMICTPRLMYIVTFMKSILPFEAVVCMYRFLGADKCMYPFIAQRKQATNNNEAKNGI [RDH10] ?
Reply: 52.9
